Cited source: PubChem BioAssay AID1918996

# System: 349418-098-R-PDC complex spheroid growth
# test_summary: Anticancer human tumor 349418-098-R-PDC patient-derived lung adenocarcinoma cell line growth inhibition [AhR]
# test_parameters: curve of first compound; second compound 0.316 µM
pIC50: −log10 of the molar value.
metric_name: pIC50

[
  {
    "molecule": "Nc1ccccc1NC(=O)c1ccc(CNC(=O)OCc2cccnc2)cc1 + Cc1ccccc1N=Nc1ccc(NC(=O)c2ccnn2C)c(C)c1",
    "measured_target": "349418-098-R-PDC complex spheroid growth",
    "pIC50": 6.00
  },
  {
    "molecule": "CC1COCCN1c1cc(-c2ccnn2C)c2ccnc(-c3ccn[nH]3)c2n1 (stereo not drawn) + Cc1ccccc1N=Nc1ccc(NC(=O)c2ccnn2C)c(C)c1",
    "measured_target": "349418-098-R-PDC complex spheroid growth",
    "pIC50": 6.99
  },
  {
    "molecule": "CC1COCCN1c1cc(C2(S(C)(=N)=O)CC2)nc(-c2ccnc3[nH]ccc23)n1 (stereo not drawn) + Cc1cncc(-c2nc(NCCc3c[nH]c4ccccc34)c3ncn(C(C)C)c3n2)c1",
    "measured_target": "349418-098-R-PDC complex spheroid growth",
    "pIC50": 5.38
  }
]

1 = O=C(C=Cc1cccc(S(=O)(=O)Nc2ccccc2)c1)NO + Cc1ccccc1N=Nc1ccc(NC(=O)c2ccnn2C)c(C)c1
2 = COc1ccc([C@@H](O)c2cc(-c3ncnc4cc(N5CCOCC5)ccc34)c(F)cc2Cl)nn1 + CC(CO)NC(=O)c1cc(-c2ccc(Cl)cc2)nn(-c2cnn(C)c2)c1=O
Asked: For this pair, 1 and 2 , which shows a numerically higher pIC50? Please identify the chosen entry by its label.
Given back: 1

A = O=C(C=Cc1cccc(S(=O)(=O)Nc2ccccc2)c1)NO + CC(CO)NC(=O)c1cc(-c2ccc(Cl)cc2)nn(-c2cnn(C)c2)c1=O
B = Nc1ncn(C2CC(O)C(CO)O2)c(=O)n1 (stereo not drawn) + CC(CO)NC(=O)c1cc(-c2ccc(Cl)cc2)nn(-c2cnn(C)c2)c1=O
Asked: Lab note: check whether A or B has the lower measured pIC50. Record your answer as the label of the chosen record.
Given back: A
(A: 6.21, B: 7.20)

* * *

Items are presented alongside their recorded viability, T/C.
# System: 349418-098-R-PDC complex spheroid growth
# test_summary: Anticancer human tumor 349418-098-R-PDC cell line growth inhibition [AhR];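 also: spheroids exposed to agents for seven days before luminescence viability read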;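 as to viability, T/C: spheroids also contain HUVEC endothelial cells and human MSC stroma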
# test_parameters: second compound 3.16 µM; first compound 3.16 µM; stronger effect = lower value
Report only the number, with the unit % understood.

Check out these entries, answers already filled in.
[
  {
    "molecule": "CC1COCCN1c1cc(C2(S(C)(=N)=O)CC2)nc(-c2ccnc3[nH]ccc23)n1 (stereo unspecified) + Cc1ccccc1N=Nc1ccc(NC(=O)c2ccnn2C)c(C)c1",
    "metric_name": "viability, T/C",
    "unit_annotation": "%",
    "test_value": 31.8
  },
  {
    "molecule": "Nc1ccccc1NC(=O)c1ccc(CNC(=O)OCc2cccnc2)cc1 + CC(CO)NC(=O)c1cc(-c2ccc(Cl)cc2)nn(-c2cnn(C)c2)c1=O",
    "metric_name": "viability, T/C",
    "unit_annotation": "%",
    "test_value": 22.1
  },
  {
    "molecule": "Nc1ccn(C2OC(CO)C(O)C2(F)F)c(=O)n1 (stereo unspecified) + Cc1cncc(-c2nc(NCCc3c[nH]c4ccccc34)c3ncn(C(C)C)c3n2)c1",
    "metric_name": "viability, T/C",
    "unit_annotation": "%",
    "test_value": 4.89
  },
  {
    "molecule": "CC(C)c1c(-c2ccccc2)nc2c(C#N)c[nH]n2c1=O + Cc1ccccc1N=Nc1ccc(NC(=O)c2ccnn2C)c(C)c1",
    "metric_name": "viability, T/C",
    "unit_annotation": "%",
    "test_value": 53.9
  },
  {
    "molecule": "NS(=O)(=O)OCC1CC(n2ccc3c(NC4CCc5ccccc54)ncnc32)CC1O (stereo unspecified) + Cc1ccccc1N=Nc1ccc(NC(=O)c2ccnn2C)c(C)c1",
    "metric_name": "viability, T/C",
    "unit_annotation": "%",
    "test_value": 11.9
  }
]

Asked: Look up viability, T/C: COc1cc(C2c3cc4c(cc3C(OC3OC5COC(C)OC5C(O)C3O)C3COC(=O)C23)OCO4)cc(OC)c1O (stereo unspecified) + Cc1ccccc1N=Nc1ccc(NC(=O)c2ccnn2C)c(C)c1
Given back: 16.3

* * *

# maps each entry to its viability, T/C
# Tested on: 349418-098-R-PDC complex spheroid growth
# test_summary: Anticancer human tumor 349418-098-R-PDC cell line growth inhibition [AhR];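 also: spheroids exposed to agents for seven days before luminescence viability read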;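 as to viability, T/C: spheroids also contain HUVEC endothelial cells and human MSC stroma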
# test_parameters: second compound 1 µM; first compound 0.03 µM; stronger effect = lower value
Give the value in % but do not write % after it.

// below: answered molecules
[
  {
    "molecule": "CCN(c1cc(-c2ccc(CN3CCOCC3)cc2)cc(C(=O)NCc2c(C)cc(C)[nH]c2=O)c1C)C1CCOCC1 + CC(CO)NC(=O)c1cc(-c2ccc(Cl)cc2)nn(-c2cnn(C)c2)c1=O",
    "unit_annotation": "%",
    "viability, T/C": 123
  },
  {
    "molecule": "CCc1c2c(nc3ccc(O)cc13)-c1cc3c(c(=O)n1C2)COC(=O)[C@]3(O)CC + Cc1cncc(-c2nc(NCCc3c[nH]c4ccccc34)c3ncn(C(C)C)c3n2)c1",
    "unit_annotation": "%",
    "viability, T/C": 3.53
  }
]

Next item in the queue.
Asked: Dear colleague, I am looking for the recorded viability, T/C of the following molecule: Nc1ncn(C2CC(O)C(CO)S2)c(=O)n1 (stereo not drawn) + Cc1ccccc1N=Nc1ccc(NC(=O)c2ccnn2C)c(C)c1
Given back: 67.5

* * *

# Test system: 349418-098-R-PDC complex spheroid growth
# test_summary: Anticancer human tumor 349418-098-R-PDC cell line growth inhibition [AhR];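 also: spheroids exposed to agents for seven days before luminescence viability read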;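 as to viability, T/C: spheroids also contain HUVEC endothelial cells and human MSC stroma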
# test_parameters: second compound 3.16 µM; first compound 10 µM; stronger effect = lower value
metric_name: viability, T/C (%)
# value in %; strip the unit string

[
  {
    "molecule": "CC1(C)CCC(CN2CCN(c3ccc(C(=O)NS(=O)(=O)c4ccc(NCC5CCOCC5)c([N+](=O)[O-])c4)c(Oc4cnc5[nH]ccc5c4)c3)CC2)=C(c2ccc(Cl)cc2)C1 + Cc1cncc(-c2nc(NCCc3c[nH]c4ccccc34)c3ncn(C(C)C)c3n2)c1",
    "unit_annotation": "%",
    "viability, T/C": 26.6
  },
  {
    "molecule": "O=C(c1cc(Cc2n[nH]c(=O)c3ccccc23)ccc1F)N1CCN(C(=O)C2CC2)CC1 + Cc1cncc(-c2nc(NCCc3c[nH]c4ccccc34)c3ncn(C(C)C)c3n2)c1",
    "unit_annotation": "%",
    "viability, T/C": 13.9
  },
  {
    "molecule": "COc1cccc2c1C(=O)c1c(O)c3c(c(O)c1C2=O)CC(O)(C(=O)CO)CC3OC1CC(N)C(O)C(C)O1 (stereo not given) + Cc1ccccc1N=Nc1ccc(NC(=O)c2ccnn2C)c(C)c1",
    "unit_annotation": "%",
    "viability, T/C": 6.09
  }
]

Asked: // returns reported viability, T/C for input COc1cccc2c1C(=O)c1c(O)c3c(c(O)c1C2=O)CC(O)(C(=O)CO)CC3OC1CC(N)C(O)C(C)O1 (stereo not given) + Cc1cncc(-c2nc(NCCc3c[nH]c4ccccc34)c3ncn(C(C)C)c3n2)c1
Given back: 3.34

Asked: Request the reported viability, T/C associated with COc1cc(C2c3cc4c(cc3C(OC3OC5COC(C)OC5C(O)C3O)C3COC(=O)C23)OCO4)cc(OC)c1O (stereo not given) + Cc1ccccc1N=Nc1ccc(NC(=O)c2ccnn2C)c(C)c1
Given back: 16

* * *

# System: 349418-098-R-PDC complex spheroid growth
# test_summary: Anticancer human tumor 349418-098-R-PDC cell line growth inhibition [AhR];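 also: spheroids exposed to agents for seven days before luminescence viability read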;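 as to viability, T/C: spheroids also contain HUVEC endothelial cells and human MSC stroma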
# test_parameters: second compound 3.16 µM; first compound 3.16 µM; stronger effect = lower value
# key: entry, value: viability, T/C
Give a bare numeral; the unit % is implied.

Some entries whose results are on file:
[
  {
    "compound": "COc1ccc([C@@H](O)c2cc(-c3ncnc4cc(N5CCOCC5)ccc34)c(F)cc2Cl)nn1 + Cc1cncc(-c2nc(NCCc3c[nH]c4ccccc34)c3ncn(C(C)C)c3n2)c1",
    "unit_annotation": "%",
    "viability, T/C": 11.9
  },
  {
    "compound": "COc1cc(C2c3cc4c(cc3C(OC3OC5COC(C)OC5C(O)C3O)C3COC(=O)C23)OCO4)cc(OC)c1O (stereo not drawn) + CC(CO)NC(=O)c1cc(-c2ccc(Cl)cc2)nn(-c2cnn(C)c2)c1=O",
    "unit_annotation": "%",
    "viability, T/C": 16.6
  }
]

Now turn to the next compound.
Asked: So what does the record say about viability, T/C for O=C(C=Cc1cccc(S(=O)(=O)Nc2ccccc2)c1)NO + Cc1cncc(-c2nc(NCCc3c[nH]c4ccccc34)c3ncn(C(C)C)c3n2)c1 ?
Given back: 7.91
